Would you kindly list EC50 (read off the curve) for each of these binders?
Molecular target: T1, gp120Bal-CD4
T1 construct: also called 120Bal-CD4 complex
Experiment: ELISA, OD 450 nm

*Q* Give the measured EC50 (read off the curve) of m36.5 (VHH, eAd, mutant of m36 selected from a phage library) VHH: QVQLVQSGGGLVQPGGSLRLSCAASAFDFSDYEMSWVREAPGKGLEWIGEINDSGNTIYNPSLKSRVTISRDNSKNTLYLQMNTLSAEDTAIYYCAIYGGNSGGEYWGQGTLVTVSS .
*A* ~1 nM

*Q* Give the measured EC50 (read off the curve) of m36.4 (VHH, eAd, mutant of m36; also called m36.4 eAd) VHH: QVQLVQSGGGLVQPGGSLRLSCAASAFDFSDYEMSWVREAPGKGLEWIGEINDSGNTIYNPSLKSRVTISRDNSKNTLYLQMNTLRAEDTAIYYCAIYGGNSGGEYWGQGTLVTVSS .
*A* ~1 nM

*Q* Give the measured EC50 (read off the curve) of m36.2 (VHH, eAd, mutant of m36 selected from a phage library) VHH: QVQLVQSGGGLIQPGGSLRLSCAASAFDFSDYEMSWVRQDPGKGLEWIGEINDRGNTIYNPSLKSRVTISRDNSKNTLYLQMNTLRAEDTAIYYCAIYGGNSGGEYWGQGTLVTVSS .
*A* ~2 nM

*Q* Give the measured EC50 (read off the curve) of m36.1 (VHH, eAd, mutant of m36 selected from a phage library) VHH: QVQLVQSGGGLVQPGGSLRLSCAASTFDFSDYEMSWVREAPGKGLEWIGEINDSGNTIYNPSLKNRVTISRDNSKNTLYLQMNTLRAEDTAIYYCAIYGGNSGGEYWGQGTLVTVSS .
*A* ~1 nM
